Tested on: GH3-TRE-Luc cell line
Conditions: read-out: AC50 (uM) modified / 1000; Tox21_110001=Tox21_300198; viability, 1 nM T3 present, 24 h
reportedProperty: CC50 (µM)
Numbers only; they are read as µM.

Req: Suppose we examine the molecule CCC(C)(c1ccc(O)cc1)c1ccc(O)cc1 ; what CC50 value has been reported?
Resp: 88.4

###

Assay: in vitro
Settings: rat, gh3-tre-luc cells, AC50 (uM) modified / 1000, Tox21_110001=Tox21_112865; viability, 1 nM T3 present, 24 h
Structures can show the parent of a compound that is named as a salt.
reportedProperty: CC50 at 24 h (µM)
Entry rule: numbers only, all in µM.

Req: Quick one: CC50 at 24 h for CCN[C@H](C)Cc1cccc(C(F)(F)F)c1 [(-)-Fenfluramine hydrochloride] ?
Resp: 52.7

###

Here the recorded CC50 at 24 h is given for each entry.
Test: in vitro
Settings: rat, gh3-tre-luc cells, AC50 (uM) modified / 1000
Counter-ions that a name gives are not always drawn.

# count of solved cases: 10
>>> endpointresult("OC(CCN1CCCCC1)(c1ccccc1)c1ccccc1 [Pridinol]")
"25.8 µM"
>>> endpointresult("CC(C)c1ccc2cc(C(C)C)ccc2c1 [2,6-Diisopropylnaphthalene]")
"> 90 µM"
>>> endpointresult("N=C(N)NCCCCCCC(=O)NC(O)C(=O)NCCCCNCCCN (stereo not drawn) [Gusperimus trihydrochloride]")
"> 50 µM"
>>> endpointresult("Cc1occc1C(=O)Nc1ccc(C(=O)N2CCC(F)(F)/C(=C\\C(=O)N3CCC(N4CCCCC4)CC3)c3ccccc32)cc1 [YM218]")
"11.8 µM"
>>> endpointresult("CC(C)CC(C)CC(O)CC(C)C (stereo not drawn) [2,6,8-Trimethyl-4-nonanol]")
"> 90 µM"
>>> endpointresult("CSC(C)(C)/C=N/O [Aldicarb oxime]")
"> 90 µM"
>>> endpointresult("COc1ccc2c(c1)C(=O)N(CCc1ccc(S(=O)(=O)NC(=O)NC3CCCCC3)cc1)C(=O)C2(C)C [Gliquidone]")
"> 20 µM"
>>> endpointresult("CNC1(C)C2CCC(C2)C1(C)C (stereo not drawn) [Mecamylamine]")
"> 50 µM"
>>> endpointresult("CCC(=O)O[C@]1(C(=O)SCF)[C@H](C)C[C@H]2[C@@H]3C[C@H](F)C4=CC(=O)C=C[C@]4(C)[C@@]3(F)[C@@H](O)C[C@@]21C [Fluticasone propionate]")
"> 20 µM"
>>> endpointresult("CO[C@@]12[C@H](COC(N)=O)C3=C(C(=O)C(C)=C(N)C3=O)N1C[C@@H]1N[C@@H]12 [Mitomycin C]")
"2.52 µM"

Req: Return reported CC50 at 24 h; argument: COC(=O)c1ccccc1CS(=O)(=O)NC(=O)Nc1nc(OC)cc(OC)n1 [Bensulfuron-methyl]
Resp: > 90 µM

Req: Param item = CN(C)c1ccc(CCO)cc1 [p-N,N-Dimethylaminophenethanol] ; retrieve measured CC50 at 24 h.
Resp: > 90 µM

Req: Give the measured CC50 at 24 h of CC(C)(C)CC(C)(C)c1ccc(O)c(-n2nc3ccccc3n2)c1 [Octrizole] .
Resp: 35.4 µM

Req: What does the record list as CC50 at 24 h for O=Nc1ccc(Nc2ccccc2)cc1 [4-Nitrosodiphenylamine] ?
Resp: 8.75 µM

Req: Given COC(=O)CCSCCC(=O)OC [Dimethyl 3,3'-thiodipropionate] , state its recorded CC50 at 24 h.
Resp: > 90 µM
